growth inhibition overview
ASSAY NAME: NCI Yeast Anticancer Drug Screen. Data for the mec2-1 strain (AID 157)
TEST CONTEXT: S. cerevisiae mec2-1 strain, at 50.0 µM, stronger effect = higher value
Compounds without any hit were thinned out: in the full panel of roughly 79,000, 15% have a hit.

[
  {
    "COMPOUND": "CN1Cc2ccccc2C1",
    "UNIT TEXT": "%",
    "growth inhibition": -3.5
  },
  {
    "COMPOUND": "CC(=O)N/N=C1/NN(C(C)=O)C2(S1)C(=O)Nc1ccc(C)cc12 (stereo unspecified)",
    "UNIT TEXT": "%",
    "growth inhibition": 38.8
  },
  {
    "COMPOUND": "O=C(O)c1cc(=O)[nH]c(SCc2ccccc2)n1",
    "UNIT TEXT": "%",
    "growth inhibition": -20.1
  },
  {
    "COMPOUND": "O=C(Nc1ccccc1)OCC#CCOC(=O)Nc1ccccc1",
    "UNIT TEXT": "%",
    "growth inhibition": 11.7
  },
  {
    "COMPOUND": "O=C(/C=C/c1ccc2c(c1)OCO2)c1cccc2ccccc12",
    "UNIT TEXT": "%",
    "growth inhibition": -14.6
  },
  {
    "COMPOUND": "COC(=O)C(NC(=O)C(=O)NC(C(=O)OC)C(C)(C)S)C(C)(C)S (stereo unspecified)",
    "UNIT TEXT": "%",
    "growth inhibition": -9.1
  },
  {
    "COMPOUND": "Cn1c(=O)cc(CCl)c2ccccc21",
    "UNIT TEXT": "%",
    "growth inhibition": 26.6
  },
  {
    "COMPOUND": "CC1(C)CC(=O)N(Nc2ccccc2)C1=O",
    "UNIT TEXT": "%",
    "growth inhibition": -7.6
  },
  {
    "COMPOUND": "O=C1C[C@@H]2CCCC[C@@H]2C12SCCS2",
    "UNIT TEXT": "%",
    "growth inhibition": -18.6
  },
  {
    "COMPOUND": "Clc1ccccc1-c1c2ccccc2cc2ccc3ccccc3c12",
    "UNIT TEXT": "%",
    "growth inhibition": -11.6
  },
  {
    "COMPOUND": "C=C(C)Cc1c(C)c(Cl)cc(Cl)c1OC(=O)Nc1ccccc1",
    "UNIT TEXT": "%",
    "growth inhibition": 9.6
  },
  {
    "COMPOUND": "O=C1CCCC2=C1C(c1ccc(Cl)c(Cl)c1)C1=C(CCCC1=O)O2",
    "UNIT TEXT": "%",
    "growth inhibition": 7.05
  },
  {
    "COMPOUND": "CC(=O)OCC1OC(n2cc(C)c(=O)[nH]c2=O)C(NC(=O)C(Cl)(Cl)Cl)C(OC(C)=O)C1OC(C)=O (stereo unspecified)",
    "UNIT TEXT": "%",
    "growth inhibition": -4.6
  },
  {
    "COMPOUND": "Nc1ccc(S(=O)(=O)O)cc1Cl",
    "UNIT TEXT": "%",
    "growth inhibition": -12
  },
  {
    "COMPOUND": "N#Cc1c(-c2ccccc2)cc(-c2ccccc2)[nH]c1=O",
    "UNIT TEXT": "%",
    "growth inhibition": 7.4
  },
  {
    "COMPOUND": "CN(C)C(=O)C1C2CCCC(CC2)C1C(=O)N(C)C (stereo unspecified)",
    "UNIT TEXT": "%",
    "growth inhibition": 19.6
  },
  {
    "COMPOUND": "CCOC(=O)c1ccc(NN=NC(C)(C)C)cc1",
    "UNIT TEXT": "%",
    "growth inhibition": -8.5
  },
  {
    "COMPOUND": "Cc1cc2nc(CC(O)c3nc4cc(C)c(C)cc4[nH]3)[nH]c2cc1C (stereo unspecified)",
    "UNIT TEXT": "%",
    "growth inhibition": -12.9
  },
  {
    "COMPOUND": "O=C(OC1C#CCSCC#C/C=C\\1)c1ccc2c(c1)C(=O)c1ccccc1C2=O (stereo unspecified)",
    "UNIT TEXT": "%",
    "growth inhibition": -34
  },
  {
    "COMPOUND": "O=C1c2c(nc3ccccc3c2-c2ccccc2)CN1Nc1ccccn1",
    "UNIT TEXT": "%",
    "growth inhibition": -4.1
  },
  {
    "COMPOUND": "Clc1ccc(-n2cccc2)cc1",
    "UNIT TEXT": "%",
    "growth inhibition": 0.25
  },
  {
    "COMPOUND": "O=c1c2cnc3c4cccnc4ccc3c2[nH]n1-c1ccccc1",
    "UNIT TEXT": "%",
    "growth inhibition": 8.15
  },
  {
    "COMPOUND": "Cc1ccc(C2=C(Cl)C(=O)C(c3ccc(C)cc3)=C(Cl)C2=O)cc1",
    "UNIT TEXT": "%",
    "growth inhibition": 10.3
  },
  {
    "COMPOUND": "COC(=O)c1cc(C(=O)OC)c2c3[nH]cnc3ncn2c1=O",
    "UNIT TEXT": "%",
    "growth inhibition": 9.85
  },
  {
    "COMPOUND": "CCOc1c(N=Nc2ccc(Br)cc2)c(C)nn1C(N)=S",
    "UNIT TEXT": "%",
    "growth inhibition": 33.9
  },
  {
    "COMPOUND": "CCOc1ccccc1/C=C(/C#N)C(N)=O",
    "UNIT TEXT": "%",
    "growth inhibition": -0.5
  },
  {
    "COMPOUND": "COc1cc(/C=C/C(=O)O)cc(OC)c1O",
    "UNIT TEXT": "%",
    "growth inhibition": -5.05
  },
  {
    "COMPOUND": "Cc1c2cc3c(c1O)C(=O)CC(O3)c1ccc(O)c(c1)-c1cccc(c1O)C(=O)OCC1OC(O2)C(O)C(O)C1O (stereo unspecified)",
    "UNIT TEXT": "%",
    "growth inhibition": 54.4
  },
  {
    "COMPOUND": "C1C[S][Ge]2([S]CCS1)[S]CCSCC[S]2",
    "UNIT TEXT": "%",
    "growth inhibition": -30.5
  },
  {
    "COMPOUND": "Cc1cc(C)c(S(=O)(=O)Nc2ccccc2F)c(C)c1",
    "UNIT TEXT": "%",
    "growth inhibition": 30.7
  },
  {
    "COMPOUND": "O=C1C2Cc3ccccc3CN2C(=O)N1CCN1CCOCC1 (stereo unspecified)",
    "UNIT TEXT": "%",
    "growth inhibition": -21.8
  },
  {
    "COMPOUND": "c1ccc(Sc2cccc3c(-c4ccccc4)c4cccc5c4c(c23)C[S+]5c2ccccc2)cc1 (stereo unspecified)",
    "UNIT TEXT": "%",
    "growth inhibition": 99.1
  },
  {
    "COMPOUND": "O=C(OCc1ccccc1CN1CCOCC1)c1ccccc1",
    "UNIT TEXT": "%",
    "growth inhibition": 16.4
  },
  {
    "COMPOUND": "CCN1CCNC(=O)C1c1ccccc1 (stereo unspecified)",
    "UNIT TEXT": "%",
    "growth inhibition": 16.1
  },
  {
    "COMPOUND": "O=C1COCCO1",
    "UNIT TEXT": "%",
    "growth inhibition": -8.55
  },
  {
    "COMPOUND": "CCCCCn1[nH]nc(C(=O)OC)c1=O (tested in a mixture with another compound)",
    "UNIT TEXT": "%",
    "growth inhibition": 17.1
  }
]

* * *

ASSAY NAME: NCI Yeast Anticancer Drug Screen. Data for the sgs1 mgt1 strain (AID 161);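 also: 0% = growth of cultures given vehicle only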
TEST CONTEXT: S. cerevisiae sgs1 mgt1 strain, at 50.0 µM
This is part of a sample that, as a whole, favours compounds with a hit. Of some 79,000 tested, about 15% had one in any assay. Activity calls are given as the source filed them. Rule as the data show it: active = growth inhibition above about 70%; inactive = the rest. Where a SMILES comes first, the peptide text is derived from it. The star is where a group is joined. Trt = c1ccc(C(c2ccccc2)(c2ccccc2)*)cc1; Cbz = O=C(OCc1ccccc1)*
Classes used: label 1 (active), label 0 (inactive)

[
  {
    "COMPOUND": "CC1C=CC(C(=O)Nc2ccc(Cl)c(Cl)c2)N1C (centres undefined)",
    "CLASS": "label 0"
  },
  {
    "COMPOUND": "N#CC(O)CCOCc1ccccc1 (centres undefined)",
    "CLASS": "label 0"
  },
  {
    "COMPOUND": "O=[N+]([O-])c1ccc2c(c1)C(O)c1ccccc1-2 (centres undefined)",
    "CLASS": "label 0"
  },
  {
    "COMPOUND": "CN(/N=C\\c1ccc([N+](=O)[O-])cc1)C(=O)c1ccccc1",
    "CLASS": "label 0"
  },
  {
    "COMPOUND": "CCCCCCCCCCCC(=O)Nc1ccc(N(C)C(C)=O)cc1",
    "CLASS": "label 0"
  },
  {
    "COMPOUND": "CC(C)CCC[C@@H](C)[C@H]1CC[C@H]2C3=CC=C4C[C@H](OC(=O)c5ccccc5)CC[C@]4(C)[C@H]3CC[C@]12C",
    "CLASS": "label 0"
  },
  {
    "COMPOUND": "COc1cc(C(=O)Nc2ccc(N3CCCCC3)cc2)cc(OC)c1OC",
    "CLASS": "label 0"
  },
  {
    "COMPOUND": "Cc1ccc(S(=O)(=O)N/N=C2\\CCC3(C)C(CCC4C3CCC3(C)C(C(C)CCCC(C)C)CCC43)C2)cc1 (centres undefined)",
    "CLASS": "label 0"
  },
  {
    "COMPOUND": "NC1=NN(c2ccccc2)C(=O)C1/C(=N\\NC(=O)c1cc2ccccc2cc1O)C(=O)Nc1ccc(Cl)c(Cl)c1 (centres undefined)",
    "CLASS": "label 0"
  },
  {
    "COMPOUND": "CCN(CC)CCOC(=O)CCC(C)=O",
    "CLASS": "label 0"
  },
  {
    "COMPOUND": "CCNC(=O)c1ccc(Cl)cc1",
    "CLASS": "label 0"
  },
  {
    "COMPOUND": "CCCCC/C(C)=C\\CBr",
    "CLASS": "label 0"
  },
  {
    "COMPOUND": "CCCCCCC(=O)OC[n+]1ccc2c(C)c3[nH]c4ccc(OC)cc4c3c(C)c2c1",
    "CLASS": "label 1"
  },
  {
    "COMPOUND": "COC(=O)C(CO)NC(=O)C(CSC(c1ccccc1)(c1ccccc1)c1ccccc1)NC(=O)OCc1ccccc1 (centres undefined) (Cbz-Cys(Trt)-Ser-OMe; configuration not given here)",
    "CLASS": "label 1"
  },
  {
    "COMPOUND": "O=c1[nH]c(=O)n(C2CC(O)C(CO)O2)cc1NN=NCCc1ccccc1 (centres undefined)",
    "CLASS": "label 0"
  },
  {
    "COMPOUND": "NNc1nnc(Cl)c2c1ncn2Cc1ccccc1",
    "CLASS": "label 0"
  },
  {
    "COMPOUND": "COc1ccc2c(c1)C(=O)C1(C2)[C@H](c2ccccc2)C2C(=O)c3cc(OC)ccc3C2[C@H]1c1ccccc1 (some centres undefined)",
    "CLASS": "label 0"
  },
  {
    "COMPOUND": "CC(=O)Nc1ccc(Cc2[nH]c(=O)[nH]c(=O)c2Br)cc1",
    "CLASS": "label 0"
  },
  {
    "COMPOUND": "O=C(Nc1cccc2ccccc12)c1ccccc1F",
    "CLASS": "label 0"
  }
]
